Biological target: Trypsin
Assay: selectivity inhibition assay
pKi: −log10 of the molar value. Starred links: 1 amine or outer side, 2 acyl side, 3 side chain; linkers in the order of their positions; H or OH if unused. *: point of attachment. kbt‑6‑CONH‑4‑pyridine = ketobenzothiazole-6-CONH-4-pyridine (Kbt-4-pyridinylamide), O=C(Nc1ccncc1)c1ccc2nc(*)sc2c1; Kbt‑6‑CONH = ketobenzothiazole-6-CONH (amide link to Val), O=C(c1ccc2nc([*:1])sc2c1)[*:2]; kbt‑6‑COOH = ketobenzothiazole-6-COOH, O=C(O)c1ccc2nc(*)sc2c1; kbt = C-terminal ketobenzothiazole, c1ccc2sc(*)nc2c1; Kbt = ketobenzothiazole, c1ccc2sc(*)nc2c1; Fmoc = O=C(OCC1c2ccccc2-c2ccccc21)*

Binder	pKi
Ac-KRLR-Kbt (SMILES CC(=O)N[C@@H](CCCCN)C(=O)N[C@@H](CCCNC(=N)N)C(=O)N[C@@H](CC(C)C)C(=O)N[C@@H](CCCNC(=N)N)C(=O)c1nc2ccccc2s1) [Ac-KRLR(SEQ ID NO: 8)-Kbt]	9.09
Fmoc-Phe-Arg-kbt [Fmoc-FR-kbt]	7.84
Ac-SKLR-{kbt‑6‑COOH} (SMILES CC(=O)N[C@@H](CO)C(=O)N[C@@H](CCCCN)C(=O)N[C@@H](CC(C)C)C(=O)N[C@@H](CCCNC(=N)N)C(=O)c1nc2ccc(C(=O)O)cc2s1) [Ac-SKLR(SEQ ID NO: 10)-Kbt-COOH]	10.52
H-Arg-Leu-Arg-{kbt-Val-NH2} [H-RLR-kbt-Val-NH2]	9.51
Ac-SKLR-{kbt‑6‑CONH‑4‑pyridine} [Ac-SKLR(SEQ ID NO: 10)-Kbt-4-pyridinylamide]	8.97
H-Leu-Leu-Arg-{kbt-Val-NH2} [H-LLR-kbt-Val-NH2]	9.21
Ac-KQLR-{Kbt‑6‑CONH-Val-NH2} [Ac-KQLR(SEQ ID NO: 1)-Kbt-Val-NH2]	10.15
Ac-SKLR-kbt (SMILES CC(=O)N[C@@H](CO)C(=O)N[C@@H](CCCCN)C(=O)N[C@@H](CC(C)C)C(=O)N[C@@H](CCCNC(=N)N)C(=O)c1nc2ccccc2s1) [Ac-SKLR(SEQ ID NO: 10)-Kbt]	9.80
Ac-KRLR-{Kbt-Benzyl‑3‑COOMe} [Ac-KRLR(SEQ ID NO: 8)-kbt-Benzyl-3-COOMe]	10.40

Entry source: patent US20180066015A1
